Test system: NCI-H522 lung
Experiment: NCI-60 one-dose screen, 48 h (100 = growth as untreated, 0 = no growth, -100 = all killed)
Settings: 10 µM unless noted
Compounds without any hit were thinned out: in the full panel of roughly 83,000, 20% have a hit. Active and inactive are the calls of the source. The calls were made as follows: active = growth percent below 10; inactive = the rest.
metric: growth

The examples below pair each entry with its known result.
Clc1ccc(-c2nnc(Cn3ccnc3)o2)cc1    115% (inactive)
CC[C@@H](C[C@H](CCO)c1ccccc1)c1cc2ccccc2o1    77.5% (inactive)
C#CC[C@H](N)C(=O)O    89.2% [20 µM] (inactive)

Now for a further molecule.
Form: molecule = C(=C\c1nc2ccccc2[nH]1)/c1nc2ccccc2[nH]1 ; growth = 98% (inactive)

###

Test system: NCI-H522 lung
Experiment: NCI-60 one-dose screen, 48 h (100 = growth as untreated, 0 = no growth, -100 = all killed)
Details: 10 µM unless noted
This is part of a sample that, as a whole, favours compounds with a hit. Of some 83,000 tested, about 20% had one in any assay.
Reported growth values are given for each entry in this list.
Respond numerically; units are % and should not be typed.

Use these answered entries as a reference point.
O=C1Nc2ccc(Cl)cc2/C1=N/N=C/c1c[nH]c2ccccc12    73.2
Cc1ccc(NC(=O)C(Cl)Cl)cc1    80.9
Cc1ccc(/C(=N\N=C(N)N)c2ccccc2)cc1    -11.8

I looked up COc1ccc(/C=C2\COc3ccc(O)cc3C2=O)c(OC)c1 and its growth for NCI-H522 lung was 39.1

The molecule CC1=CC(=O)C(C(C)C)=CC1=Nc1cc(Br)c(O)c(Br)c1 on NCI-H522 lung: growth was 55

Observed growth on NCI-H522 lung, entry CNC(=O)NCC1OC(n2cnc3c(NC(=O)Nc4ccccc4)ncnc32)C2OC(C)(C)OC12 (stereo unspecified) , equals 103

The molecule O=c1ccn(C2OC(F)(CO)C(O)C2F)c(=O)[nH]1 (stereo unspecified) , when measured on NCI-H522 lung, yielded growth of 75

The measured growth that CS(=O)(=O)c1ccc(-c2[nH]c3ccc(F)cc3c2/C=N/O)cc1 showed for NCI-H522 lung is 82

###

Test system: HCT-15 colon
Assay: NCI-60 one-dose screen, 48 h
Settings: 10 µM unless noted
Compounds without any hit were thinned out: in the full panel of roughly 83,000, 20% have a hit. Active and inactive are the calls of the source. The calls were made as follows: active = growth percent below 10; inactive = the rest.
Please reply with one of these outcomes: TRUE for active, FALSE for inactive

COc1cc(/C=C/c2nc(Nc3ccc(S(=O)(=O)Nc4cc(C)on4)cc3)c3ccccc3n2)ccc1O    FALSE
N=C(N)c1ccc(-c2ccc(-c3ccc(Cl)cc3Cl)o2)nc1    TRUE
CC(=O)c1ccc2c(c1)CCN2    FALSE
COc1ccc(/C(C)=C(\c2ccc(Cl)cc2)c2ccc(OCCN3CCCCCC3)cc2)cc1F    TRUE
CC(C)(C)OC(=O)N1Cc2cc3ccccc3nc2C1CO (configuration not stated)    FALSE

Shifting focus to the compound that follows.
Prompt line: Answer briefly: the call reported for Cc1cc(-c2ccccc2)cc(SC#N)[n+]1[O-] in this assay.
Response line: FALSE

###

System: SN12C renal
Assay: NCI-60 one-dose screen, 48 h
Settings: 10 µM unless noted
About 83,000 compounds went through this panel and 20% of them were active in at least one assay; those are over-represented in the sample as a whole. Activity calls are given as the source filed them. The calls were made as follows: active = growth percent below 10; inactive = the rest.
Hi there, use one of these labels in your reply, thanks! true (1) (active), false (0) (inactive)

A selection of reference data follows.
Cc1cc(C(c2ccccc2)c2ccccc2)ccc1NS(=O)(=O)c1ccccc1    false (0)
C=C(Cl)COC(=O)C(C)(C)O    false (0)
O=[N+]([O-])c1ccc2[nH]cc(-c3c4ccsc4cc4[nH]c5ccc([N+](=O)[O-])cc5c34)c2c1    false (0)
COc1cc2nc(Nc3ccc(F)cc3)nc(N)c2cc1OC    false (0)
CC(C)N(CCOC(=O)Nc1ccccc1Cl)C(C)C    false (0)
CCN(CC)S(=O)(=O)c1ccc(O)c(NC(=O)c2[nH]c(C)c(C(C)=O)c2CCc2ccc(Cl)cc2)c1    false (0)
Cn1cc(-c2ccc3nc(-c4ccc(CC(=O)Nc5cc(C(C)(C)C)no5)cc4)cnc3c2)cn1    true (1)
C=CCOc1cccc(/C=C2\SC(=Nc3ccc(O)cc3)NC2=O)c1    false (0)

Prompt line: Tell me the assay call for O=C(/C=C/c1ccccc1)c1ccc2ccccc2c1 please.
Response line: false (0)

Prompt line: // outcome(item) with item = Cc1cc(=O)c2cc3nc(-c4cccnc4)oc3c(Br)c2o1
Response line: false (0)
